The origin of these recorded values is a melting point compilation (Tetko et al.; mined from patent text by program, amines drawn as free bases though some values may be those of a salt).

Entries and their measured melting point follow.

{"columns": ["molecule", "result"],
 "data": [
  ["CCCc1nc2c(N)nc3cccnc3c2n1CCCCN(OC)C(=O)Nc1ccccc1", "155 to 156 °C"]
]}

Short answer for ClCCC1(CCCl)c2ccccc2Sc2ccccc21 : melting point was 61 to 62 °C

Short answer for O=C(N=C1SCCN1Cc1cnc(Cl)s1)c1ccccc1 : melting point was 120 °C

Short answer for CC(C)(C)OC(=O)NN=C(c1ccccc1)c1ccncc1 : melting point was 134 °C

Short answer for COC(=O)CCc1cnoc1-c1ccc(F)cc1F : melting point was 40 to 41 °C

Short answer for COC(=O)c1c(N)ncn1C(c1ccccc1)c1ccccc1 : melting point was 199 to 201 °C

Short answer for O=C(NC1CN2CCC1CC2)c1cccc2nc(-c3ccc(F)cc3)oc12 (centres undefined) : melting point was 185 to 187 °C

Short answer for CCn1cccc1C(=O)O : melting point was 77 to 78 °C

====

Entries and their measured melting point follow.

Worked set:
{"columns": ["compound", "melting point"],
 "data": [
  ["CCCN(CCC)c1nsc(NC(=O)NC)c1C(N)=O", "168 to 169 °C"],
  ["Ic1cc(I)c(OCCC(c2ccccc2)c2ccccc2)c(I)c1", "120 to 121 °C"],
  ["CC(C)Oc1c(C(N)=O)oc2ccc(O)cc12", "183 to 185 °C"],
  ["Cn1cc(C2=C(c3cn(C)c4cc(C#N)ccc34)C(=O)NC2=O)c2ccc(N)cc21", "255 to 260 °C"],
  ["CN1C(=O)CON(C(=O)OCc2ccccc2)C1c1ccccc1 (stereo unspecified)", "82 to 83 °C"]
]}

Short answer for NC(=O)CN1CCN(C(=O)c2cc(C(F)(F)F)cc(C(F)(F)F)c2)[C@H](Cc2c[nH]c3ccccc23)C1 : melting point was 170 to 173 °C

Short answer for COc1cnc(CSc2nc3cc(OC(F)F)ccc3[nH]2)c(C)c1OC : melting point was 100 to 102 °C

====

Entries and their measured melting point follow.

Worked set:
{"columns": ["compound", "measured endpoint", "result"],
 "data": [
  ["CS(=O)(=O)c1ccc(-c2coc3ccc(-c4nnc(N)o4)cc23)cc1Cl", "melting point", "263 to 264 °C"],
  ["CC(C)(C)OC(=O)C1CCN(C(=O)OCc2ccccc2)N1 (stereo unspecified)", "melting point", "55 to 57 °C"],
  ["CCCCN(CCCC)c1ccc(N=O)cc1", "melting point", "122 to 124 °C"],
  ["CC(C)C1CC(=O)C(c2ccccn2)C(=O)C1 (stereo unspecified)", "melting point", "110 to 112 °C"],
  ["N#CCCNC(=O)c1cccc(-c2cccc3sc(Cc4ccc(F)c(F)c4)cc23)c1", "melting point", "123 to 124 °C"]
]}

Short answer for Cc1cc(CCCCCCCOc2ccc(C(=O)O)cc2)on1 : melting point was 129 to 130 °C

====

measured endpoint: melting point

Worked set:
{"columns": ["compound", "melting point"],
 "data": [
  ["O=C(Nc1ccccc1)C1CCNCC1", "121 to 127 °C"],
  ["CCOC(=O)C1=C(C)NC2=C(C(=O)OC2)C1c1cccc2ncc(-c3ccccc3)cc12 (configuration not stated)", "257 to 260 °C"],
  ["O=C(/C=C/c1cccc(NC(=O)CCCc2ccccc2)c1)NO", "152 to 153 °C"]
]}

Short answer for CCc1c(C(=O)C(=O)NC2=CC(=O)OC2)c2ccccc2n1Cc1ccc(Cl)cc1 : melting point was 192 to 195 °C
